Where these numbers come from: patent US12319739

# Experimental Target: T1, hMSLN-His-Avi (human, UniProt Q13421 296-598, single biotin on the Avi tag in the biotinylated form)
# T1 construct: Monomeric; also called human MSLN-His-Avi; hMSLN-Avi-His
# T1 sequence (Q13421 other isoform, or with tags, fused parts or gaps): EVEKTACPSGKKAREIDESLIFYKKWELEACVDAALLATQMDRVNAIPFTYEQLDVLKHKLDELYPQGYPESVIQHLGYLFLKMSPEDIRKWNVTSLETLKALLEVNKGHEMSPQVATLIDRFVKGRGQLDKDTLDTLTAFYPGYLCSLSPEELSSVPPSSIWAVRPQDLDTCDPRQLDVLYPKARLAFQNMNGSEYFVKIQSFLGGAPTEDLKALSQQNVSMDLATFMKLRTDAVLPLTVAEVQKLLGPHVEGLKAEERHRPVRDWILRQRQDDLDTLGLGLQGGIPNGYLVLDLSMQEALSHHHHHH
# Test Method Notes: ratio of SPR KDs
Would you mind telling me the reported KD ratio in solution/immobilised human MSLN of each entry?
One number for each entry.

Example cases with answers are listed next.
# Binder, Reported
data = [
    ("FS22-172-003-AA/FS28-256 (bispecific antibody, human IgG1, kappa, L234A L235A, V domains shown, IgG1 mAb^2 with LALA) VH: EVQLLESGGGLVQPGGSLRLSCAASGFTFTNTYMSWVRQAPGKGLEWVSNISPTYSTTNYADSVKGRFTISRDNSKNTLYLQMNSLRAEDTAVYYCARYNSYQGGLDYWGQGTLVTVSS VL: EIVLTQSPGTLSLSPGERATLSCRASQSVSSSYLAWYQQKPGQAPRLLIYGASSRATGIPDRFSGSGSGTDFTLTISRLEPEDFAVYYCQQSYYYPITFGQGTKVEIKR", 34),
    ("FS22-172-003-AA/FS28-024 (bispecific antibody, human IgG1, kappa, L234A L235A, V domains shown, IgG1 mAb^2 with LALA; also called FS28-024 in CD137 mAb^2 format) VH: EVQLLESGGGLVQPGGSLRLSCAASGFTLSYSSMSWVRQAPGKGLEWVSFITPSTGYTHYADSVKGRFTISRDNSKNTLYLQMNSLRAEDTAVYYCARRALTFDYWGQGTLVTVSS VL: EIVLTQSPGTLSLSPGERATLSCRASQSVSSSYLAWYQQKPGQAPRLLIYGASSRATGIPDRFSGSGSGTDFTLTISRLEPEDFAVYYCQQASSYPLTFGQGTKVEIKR", 119),
    ("FS22-172-003-AA/FS28-024-051 (bispecific antibody, human IgG1, kappa, L234A L235A, V domains shown, IgG1 mAb^2 with LALA) VH: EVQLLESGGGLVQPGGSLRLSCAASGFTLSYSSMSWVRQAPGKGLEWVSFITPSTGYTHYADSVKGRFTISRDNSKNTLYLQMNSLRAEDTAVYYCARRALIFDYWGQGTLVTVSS VL: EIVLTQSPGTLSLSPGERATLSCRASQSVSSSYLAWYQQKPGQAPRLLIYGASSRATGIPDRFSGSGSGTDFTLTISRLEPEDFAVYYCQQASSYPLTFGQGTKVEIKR", 105),
]

# return KD ratio in solution/immobilised human MSLN for each item in the list
1. FS22-172-003-AA/FS28-024-053 (bispecific antibody, human IgG1, kappa, L234A L235A, V domains shown, IgG1 mAb^2 with LALA) VH: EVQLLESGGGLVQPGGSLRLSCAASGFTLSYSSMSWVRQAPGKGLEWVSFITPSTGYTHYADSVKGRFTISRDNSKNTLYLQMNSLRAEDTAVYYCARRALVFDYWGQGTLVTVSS VL: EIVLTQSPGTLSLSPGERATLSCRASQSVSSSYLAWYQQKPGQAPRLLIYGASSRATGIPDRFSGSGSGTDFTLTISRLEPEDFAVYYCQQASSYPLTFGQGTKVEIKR
2. FS22-172-003-AA/FS28-024-060 (bispecific antibody, human IgG1, kappa, L234A L235A, V domains shown, IgG1 mAb^2 with LALA) VH: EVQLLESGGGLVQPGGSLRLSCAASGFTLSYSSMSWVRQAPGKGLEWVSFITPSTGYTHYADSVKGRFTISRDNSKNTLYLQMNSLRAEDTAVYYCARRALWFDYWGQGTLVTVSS VL: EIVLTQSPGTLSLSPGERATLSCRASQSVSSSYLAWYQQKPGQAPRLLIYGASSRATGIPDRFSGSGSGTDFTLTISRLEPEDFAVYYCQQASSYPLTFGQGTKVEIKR

RESULT:
111
33
